Tested on: A. fumigatus
assay procedure: Broth dilution antifungal susceptibility testing, A. fumigatus
Assay type: cell-based, Aspergillus fumigatus
experimental parameters: Aspergillus fumigatus, 24 h, isolate 07-2039; 24 hours; 80% inhibition; read-out: minimum inhibitory concentration (MIC)
measured metric: MIC (µg/mL)

- record smiles: "O=C(CCCCCNC(=O)c1cc(Cl)ccc1S)Nc1ccccc1"
  MIC (µg/mL): 2
- record smiles: "O=C(NCCCCCCNC(=O)c1ccccc1S)c1ccccc1S"
  MIC (µg/mL): 1
- record smiles: "CN(C)c1ccc(NC(=O)CCCCCNC(=O)c2ccccc2S)cc1"
  MIC (µg/mL): 8
- record smiles: "O=C(CCCCCNC(=O)c1ccccc1S)Nc1cccnc1"
  MIC (µg/mL): 8

a: COc1ccc(S)c(C(=O)NCCCCCC(=O)Nc2ccccc2)c1
b: O=C(CCCCCNC(=O)c1ccccc1S)Nc1ccccc1
c: Nc1ccc(NC(=O)CCCCCNC(=O)c2ccccc2S)cc1
Prompt: Please list these compounds in decreasing order of MIC. The response must list the labels following the requested ordering.
Response: c, a, b
(c: 32 µg/mL, a: 2 µg/mL, b: 1 µg/mL)

* * *

Tested on: C. glabrata
assay procedure: Broth dilution antifungal susceptibility testing, C. glabrata
Type: cell-based, Candida glabrata
experimental parameters: Nakaseomyces glabratus, 24 h, isolate 07-2964; 24 hours; 50% reduction in turbidity; read-out: minimum inhibitory concentration (MIC)
measured metric: MIC (µg/mL)

- record smiles: "O=C(CCCCCNC(=O)c1ccccc1S)Nc1ccccc1"
  MIC, µg/mL: 2
- record smiles: "CN(C)c1ccc(NC(=O)CCCCCNC(=O)c2ccccc2S)cc1"
  MIC, µg/mL: 32

P: O=C(CCCCCNC(=O)c1ccccc1S)Nc1cccnc1
Q: Nc1ccc(NC(=O)CCCCCNC(=O)c2ccccc2S)cc1
Prompt: Please indicate which item has the smaller measured MIC: P versus Q Mark your answer with the label of the selected entry.
Response: Q
(Q: 2 µg/mL, P: 32 µg/mL)

* * *

Test system: T. rubrum
assay procedure: Broth dilution antifungal susceptibility testing, T. rubrum
Format: cell-based, Trichophyton rubrum
experimental parameters: Trichophyton rubrum, 24 h, isolate 07-1743; 24 hours; 80% inhibition; read-out: minimum inhibitory concentration (MIC)
measured metric: MIC (µg/mL)

- record smiles: "O=C(CCCCCNC(=O)c1cc(Cl)ccc1S)Nc1ccccc1"
  measured result: 0.25

a: O=C(CCCCCNC(=O)c1ccccc1S)Nc1ccccc1
b: O=C(CCCCCNC(=O)c1ccccc1S)Nc1cccnc1
c: O=C(NCCCCCCNC(=O)c1ccccc1S)c1ccccc1S
d: CN(C)c1ccc(NC(=O)CCCCCNC(=O)c2ccccc2S)cc1
e: Nc1ccc(NC(=O)CCCCCNC(=O)c2ccccc2S)cc1
Prompt: Please list these compounds in decreasing order of MIC. The response must list the labels following the requested ordering.
Response: b, e, a, c, d
(b: 16 µg/mL, e: 8 µg/mL, a: 2 µg/mL, c: 1 µg/mL, d: 0.25 µg/mL)

* * *

Test system: A. fumigatus
assay procedure: Broth dilution antifungal susceptibility testing, A. fumigatus
Type: cell-based, Aspergillus fumigatus
experimental parameters: Aspergillus fumigatus, 48 h, isolate 06-4126; 48 hours; 80% inhibition; read-out: minimum inhibitory concentration (MIC)
measured metric: MIC

- molecule: "COc1ccc(S)c(C(=O)NCCCCCC(=O)Nc2ccccc2)c1 [Compound 211]"
  measured metric: "MIC"
  measured result: "> 64 µg/mL"
- molecule: "Nc1ccc(NC(=O)CCCCCNC(=O)c2ccccc2S)cc1 [Compound 209]"
  measured metric: "MIC"
  measured result: "> 64 µg/mL"
- molecule: "O=C(NCCCCCCNC(=O)c1ccccc1S)c1ccccc1S [Compound 204, Bis-1,6-(2-mercaptobenzoylamino)hexane]"
  measured metric: "MIC"
  measured result: "> 64 µg/mL"
- molecule: "CN(C)c1ccc(NC(=O)CCCCCNC(=O)c2ccccc2S)cc1 [Compound 206]"
  measured metric: "MIC"
  measured result: "64 µg/mL"

For O=C(CCCCCNC(=O)c1cc(Cl)ccc1S)Nc1ccccc1 [Compound 210] the molecule record lists MIC as > 64 µg/mL

For O=C(CCCCCNC(=O)c1ccccc1S)Nc1cccnc1 [Compound 205] the molecule record lists MIC as > 64 µg/mL

* * *

System: CP Control
assay procedure: Broth dilution antifungal susceptibility testing, CP Control
Type: cell-based
experimental parameters: 24 hours, read-out: minimum inhibitory concentration (MIC)
Protocol: A total of 23 isolates were tested to include 3 Candida albicans, 3 Candida glabrata, 3 Cryptococcus neoformans, 3 Aspergillus fumigatus, 3 Rhizopus oryzae, 3, Fusarium solani, 3 Pseudallescheria boydii, and 2 […]. All isolates were clinical isolates submitted to the Fungus Testing Laboratory for evaluation. […] Minimum inhibitory concentrations (MIC) were determined at the first 24-hour interval where growth could be determined in the drug-free control tube.
measured metric: MIC (µg/mL)

Reference set (2 entries):
- record smiles: "O=C(NCCCCCCNC(=O)c1ccccc1S)c1ccccc1S"
  target or test system: "CP Control"
  unit info: "µg/mL"
  measured result: 8
- record smiles: "CN(C)c1ccc(NC(=O)CCCCCNC(=O)c2ccccc2S)cc1"
  target or test system: "CP Control"
  unit info: "µg/mL"
  measured result: 8

A: O=C(CCCCCNC(=O)c1ccccc1S)Nc1ccccc1
B: O=C(CCCCCNC(=O)c1ccccc1S)Nc1cccnc1
Prompt: Please indicate which item has the smaller measured MIC: A versus B Mark your answer with the label of the selected entry.
Response: A

* * *

Test system: F. solani
assay procedure: Broth dilution antifungal susceptibility testing, F. solani
Type: cell-based
experimental parameters: Fusarium solani, 24 h, isolate 07-1399; 24 hours; 80% inhibition; read-out: minimum inhibitory concentration (MIC)
Description: A total of 23 isolates were tested to include 3 Candida albicans, 3 Candida glabrata, 3 Cryptococcus neoformans, 3 Aspergillus fumigatus, 3 Rhizopus oryzae, 3, Fusarium solani, 3 Pseudallescheria boydii, and 2 […]. All isolates were clinical isolates submitted to the Fungus Testing Laboratory for evaluation. […] Minimum inhibitory concentrations (MIC) were determined at the first 24-hour interval where growth could be determined in the drug-free control tube.
measured metric: MIC (µg/mL)

I: COc1ccc(S)c(C(=O)NCCCCCC(=O)Nc2ccccc2)c1
II: O=C(CCCCCNC(=O)c1ccccc1S)Nc1cccnc1
III: O=C(CCCCCNC(=O)c1cc(Cl)ccc1S)Nc1ccccc1
Prompt: rank_up(items): orders items by reported MIC in ascending numerical order. The response must list the labels following the requested ordering.
Response: III, I, II
(III: 1 µg/mL, I: 4 µg/mL, II: 64 µg/mL)

* * *

Tested on: R. arrhizus
assay procedure: Broth dilution antifungal susceptibility testing, R. arrhizus
Assay type: cell-based, Rhizopus oryzae
experimental parameters: Rhizopus arrhizus, 48 h, isolate 07-1870; 48 hours; 80% inhibition; read-out: minimum inhibitory concentration (MIC)
measured metric: MIC

- record smiles: "O=C(CCCCCNC(=O)c1cc(Cl)ccc1S)Nc1ccccc1"
  target or test system: "R. arrhizus"
  measured metric: "MIC"
  measured result: "> 64 µg/mL"
- record smiles: "Nc1ccc(NC(=O)CCCCCNC(=O)c2ccccc2S)cc1"
  target or test system: "R. arrhizus"
  measured metric: "MIC"
  measured result: "> 64 µg/mL"
- record smiles: "COc1ccc(S)c(C(=O)NCCCCCC(=O)Nc2ccccc2)c1"
  target or test system: "R. arrhizus"
  measured metric: "MIC"
  measured result: "> 64 µg/mL"

For `O=C(NCCCCCCNC(=O)c1ccccc1S)c1ccccc1S` the molecule record lists MIC as > 64 µg/mL

For `CN(C)c1ccc(NC(=O)CCCCCNC(=O)c2ccccc2S)cc1` the molecule record lists MIC as 64 µg/mL

For `O=C(CCCCCNC(=O)c1ccccc1S)Nc1cccnc1` the molecule record lists MIC as > 64 µg/mL

* * *

Test system: C. albicans
assay procedure: Broth dilution antifungal susceptibility testing, C. albicans
Format: cell-based, Candida albicans
experimental parameters: Candida albicans, 24 h, isolate 07-3011; 24 hours; 50% reduction in turbidity; read-out: minimum inhibitory concentration (MIC)
Method: A total of 23 isolates were tested to include 3 Candida albicans, 3 Candida glabrata, 3 Cryptococcus neoformans, 3 Aspergillus fumigatus, 3 Rhizopus oryzae, 3, Fusarium solani, 3 Pseudallescheria boydii, and 2 […]. All isolates were clinical isolates submitted to the Fungus Testing Laboratory for evaluation. […] Minimum inhibitory concentrations (MIC) were determined at the first 24-hour interval where growth could be determined in the drug-free control tube.
measured metric: MIC (µg/mL)

- record smiles: "O=C(CCCCCNC(=O)c1ccccc1S)Nc1cccnc1"
  unit info: "µg/mL"
  MIC: 32
- record smiles: "O=C(CCCCCNC(=O)c1ccccc1S)Nc1ccccc1"
  unit info: "µg/mL"
  MIC: 4

P: CN(C)c1ccc(NC(=O)CCCCCNC(=O)c2ccccc2S)cc1
Q: Nc1ccc(NC(=O)CCCCCNC(=O)c2ccccc2S)cc1
Prompt: Please indicate which item has the smaller measured MIC: P versus Q Mark your answer with the label of the selected entry.
Response: Q
(Q: 2 µg/mL, P: 64 µg/mL)
